test-description: Intrinsic clearance in rat microsomes
Assay type: ADME, Microsome
outcome-measure: microsomal CLint

[ask] Reported microsomal CLint for O=C(Cn1nc(C(F)(F)F)c2c1CCCC2)Nc1sc2c(c1CO)CCCC2 : what is it?
[reply] > 270 µL/min/mg

[ask] Reported microsomal CLint for CCNCc1cn(CC(=O)Nc2sc3c(c2C(N)=O)CCCC3)nc1C(F)(F)F : what is it?
[reply] < 19 µL/min/mg

[ask] Reported microsomal CLint for CNCc1cn(CC(=O)Nc2sc3c(c2C(N)=O)CCCC3)nc1C(F)(F)F : what is it?
[reply] < 12 µL/min/mg

[ask] Reported microsomal CLint for CCN(CC)Cc1cn(CC(=O)Nc2sc3c(c2C(N)=O)CCCC3)nc1C(F)(F)F : what is it?
[reply] > 270 µL/min/mg
